target: T1, cynomolgus monkey IL-2 (cynomolgus monkey, UniProt Q29615 21-154); experiment: BIACORE
T1 construct: also called cyno IL-2
T1 sequence (Q29615 21-154 limits assumed): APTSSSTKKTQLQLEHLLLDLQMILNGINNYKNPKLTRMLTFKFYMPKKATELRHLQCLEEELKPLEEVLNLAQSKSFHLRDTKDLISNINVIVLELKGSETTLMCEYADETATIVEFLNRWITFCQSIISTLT
pKd: −log10 of the molar value.
measure: pKd

{"columns": ["binder", "value observed"],
 "data": [
  ["2C3 (antibody, V domains shown) VH: EVQLVQSGAEVKKPGESLKISCKGSGYRFTSYWIGWVRQMPGKGLEWMGIIYPGDSDTRYSPSFQGQVTISADKSISAAYLQWSSLKASDTAMYYCARQQVAGMLDYWGQGTLVTVSS VL: EIVLTQSPGTLSLSPGERATLSCRASQSFSSSYLVWYQQKPGQAPRLLIYGASSRATGIPDRFGGSGSGTDFTLTISRLEPEDFAVYYCQQYGSSPLTFGGGTKVEIK", "~11.92"]
]}

Quickly give me recorded pKd for 14D7 (antibody, V domains shown) VH: QVQLQESGPGLVKPSQTLSLTCTVSGGSISSGGYYWNWIRQHPGKGLEWIGYIYYSGNTHYNPSLKSRVTISVDTSKNQFSLKLSSVIAADTAVYYCARDWGRDAFDIWGQGTMVTVSS VL: DIQMTQSPSSLSASVGDRVTITCRASQTISSYLNWYQQKPGKAPKVLIYAASSFQSGVPSRFSGSGSGTDFTLTISSLQPEDFATYYCQQSHYIPRTFGQGTKVEIK
~9.85
